Reference source: patent US6974806B2

Consider the following compounds; for each one, report its melting point.

Worked cases, melting point given:
# CHEMICAL_STRUCTURE, melting point
measured = [
    ("O=C(Cc1c(-c2ccccc2)c2cc(CN3CCOCC3)c(Cl)cc2oc1=O)Nc1ccc(Cl)cc1C(F)(F)F", "205 to 207 °C"),
    ("O=C(Cc1c(-c2ccccc2)c2cc(CO)ccc2oc1=O)Nc1ccc(Cl)cc1C(F)(F)F", "226 to 227 °C"),
    ("O=C(Cc1c(-c2ccccc2)c2cc3c(cc2oc1=O)CCC3)Nc1ccc(Cl)cc1OC(F)(F)F", "189 to 191 °C"),
    ("COc1cccc(OC)c1NC(=O)Cc1c(-c2ccccc2)c2cc(Cl)c(Cl)c(Cl)c2oc1=O", "289 to 291 °C"),
    ("Cc1cc2oc(=O)c(CC(=O)Nc3ccc(F)cc3C(F)(F)F)c(-c3ccccc3)c2cc1Br", "237 to 238 °C"),
    ("COc1cc(O)c(NC(=O)Cc2c(-c3ccccc3)c3cc4c(cc3oc2=O)CCC4)c(OC)c1", "170 to 172 °C"),
    ("O=C(Cc1c(-c2ccccc2)c2cc3c(cc2oc1=O)CCC3)Nc1c(F)cccc1C(F)(F)F", "194 to 196 °C"),
    ("O=C(Cc1c(-c2ccccc2)c2cc3c(cc2oc1=O)CCC3)Nc1c(F)cc(F)cc1F", "247 to 249 °C"),
    ("COc1cccc(OC)c1NC(=O)Cc1c(-c2ccccc2)c2cc(F)c(F)cc2oc1=O", "196 to 198 °C"),
    ("COc1cccc(OC)c1NC(=O)Nc1oc2cc3c(cc2c1-c1ccccc1C)CCC3", "208 °C (dec.)"),
]

List the reported melting point of each compound below.
1. COc1cccc(OC)c1NC(=O)Cc1c(-c2ccccc2)c2cc(Cl)c(C)cc2oc1=O
2. O=C(Cc1c(-c2ccccc2)c2cc(F)c(F)cc2oc1=O)Nc1c(OC2CCCC2)cccc1OC1CCCC1
3. CCc1cccc(CC)c1NC(=O)Cc1c(-c2ccccc2)c2cc(Cl)c(C)cc2oc1=O
4. CC(=O)OCc1cc2c(-c3ccccc3)c(CC(=O)Nc3ccc(Cl)cc3C(F)(F)F)c(=O)oc2cc1Cl

-- reply
1. 231 to 232 °C
2. 253 to 254 °C
3. 250 to 251 °C
4. 186 to 187 °C
